# SYSTEM: c-fms (Homo sapiens, UniProt P07333)
# Sequence (P07333 20-972): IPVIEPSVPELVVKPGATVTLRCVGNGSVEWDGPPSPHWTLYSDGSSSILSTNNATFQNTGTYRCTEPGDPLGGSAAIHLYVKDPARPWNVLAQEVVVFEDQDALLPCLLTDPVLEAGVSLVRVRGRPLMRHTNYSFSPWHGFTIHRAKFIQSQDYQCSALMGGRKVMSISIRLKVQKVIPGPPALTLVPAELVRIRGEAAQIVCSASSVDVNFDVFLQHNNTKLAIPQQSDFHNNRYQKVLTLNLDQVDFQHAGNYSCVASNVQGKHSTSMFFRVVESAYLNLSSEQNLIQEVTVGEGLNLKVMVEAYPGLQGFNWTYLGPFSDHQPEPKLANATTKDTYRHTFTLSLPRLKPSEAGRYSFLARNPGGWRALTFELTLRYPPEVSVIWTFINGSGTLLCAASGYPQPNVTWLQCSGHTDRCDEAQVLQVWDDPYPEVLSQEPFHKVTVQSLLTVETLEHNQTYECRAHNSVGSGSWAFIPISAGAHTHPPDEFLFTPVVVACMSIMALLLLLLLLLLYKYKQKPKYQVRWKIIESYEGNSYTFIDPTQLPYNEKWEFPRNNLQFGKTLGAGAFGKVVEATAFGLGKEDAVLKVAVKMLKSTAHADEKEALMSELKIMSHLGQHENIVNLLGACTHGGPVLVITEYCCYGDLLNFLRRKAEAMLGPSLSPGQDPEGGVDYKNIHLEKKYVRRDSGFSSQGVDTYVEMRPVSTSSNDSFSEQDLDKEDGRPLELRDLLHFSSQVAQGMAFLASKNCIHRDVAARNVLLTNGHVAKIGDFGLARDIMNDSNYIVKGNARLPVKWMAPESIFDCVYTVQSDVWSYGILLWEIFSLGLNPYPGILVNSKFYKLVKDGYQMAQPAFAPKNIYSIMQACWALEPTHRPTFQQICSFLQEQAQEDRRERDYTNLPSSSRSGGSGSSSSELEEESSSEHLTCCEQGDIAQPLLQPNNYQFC
# ASSAY_PROCEDURE: c-fms autophosphorylation, fluorescence polarization competition immunoassay
# Type: biochemical
# CONDITION_SET: average of three independent measurements; 10 nM c-fms, 1 mM ATP
// reported pIC50 for each item listed
For clarity, pIC50 is expressed as the negative log10 of concentration in mol/L.

I have this molecule here, NC(=O)c1cn(-c2ccc3c(c2)CCC3)c2nc(NCCCN3CCOCC3)ncc2c1=O [Cpd 5] , and I need its recorded pIC50.
5.59

Turning now to a further record.
I have this molecule here, NC(=O)c1cn(-c2ccc3c(c2)CCC3)c2nc(NCCN3CCOCC3)ncc2c1=O [Cpd 4] , and I need its recorded pIC50.
5.48

---

# SYSTEM: c-fms (Homo sapiens, UniProt P07333)
# ASSAY_PROCEDURE: c-fms autophosphorylation, fluorescence polarization competition immunoassay
# Assay type: biochemical
# CONDITION_SET: test concentration 1 μM; 10 nM c-fms, 1 mM ATP; read-out: c-fms Autophosphorylation Percent Inhibition, % @ 1 μM
Given measured inhibition at 1 µM, output Y if it is greater than or equal to 30% and N if not.

Hi team, for NC(=O)c1cn(C2CCCCC2)c2nc(NCCCN3CCCC3=O)ncc2c1=O , is the recorded inhibition at 1 µM at or above 30%?
Y

***
Hi team, for CONC(=O)c1cn(C2CCCCC2)c2nc(NCCN3CCOCC3)ncc2c1=O , is the recorded inhibition at 1 µM at or above 30%?
Y

// query: CNC(=O)c1cn(-c2ccc3c(c2)CCC3)c2nc(NCCCN3CCCC3=O)ncc2c1=O
N

// query: CONC(=O)c1cn(C2CCCCC2)c2nc(NCCN3CCCCC3)ncc2c1=O
N

// query: NC(=O)c1cn(-c2ccc3c(c2)CCC3)c2nc(NCCN3CCCCC3)ncc2c1=O
N

// query: CONC(=O)c1cn(-c2ccc3c(c2)CCC3)c2nc(NCCN3CCOCC3)ncc2c1=O
Y

// query: NC(=O)c1cn(C2CCCCC2)c2nc(NCCCn3ccnc3)ncc2c1=O
Y

// query: CONC(=O)c1cn(C2CCCCC2)c2nc(NCCN3CCCC3)ncc2c1=O
N

---

# SYSTEM: c-fms (Homo sapiens, UniProt P07333)
# ASSAY_PROCEDURE: c-fms autophosphorylation, fluorescence polarization competition immunoassay
# Format: biochemical
# CONDITION_SET: test concentration 1 μM; 10 nM c-fms, 1 mM ATP; read-out: c-fms Autophosphorylation Percent Inhibition, % @ 1 μM
Label scheme for inhibition at 1 µM: LOW (below 40%), MID (40% to below 60%), HIGH (60% or more)

Please report the category associated with COCCCNc1ncc2c(=O)c(C(N)=O)cn(C3CCCCC3)c2n1 [Cpd 31] , nothing else.
HIGH

---

# SYSTEM: c-fms (Homo sapiens)
# ASSAY_PROCEDURE: c-fms autophosphorylation, fluorescence polarization competition immunoassay
# Assay type: biochemical
# CONDITION_SET: test concentration 0.1 μM; 10 nM c-fms, 1 mM ATP; read-out: c-fms Autophosphorylation Percent Inhibition, % @ 0.1 μM
# Experimental: The assay buffer used was 100 mM 4-(2-hydroxyethyl)piperazine 1-ethanesulfonic acid (HEPES), pH 7.5, 1 mM 1,4-dithio-DL-threitol (DTT), 0.01% (v/v) Tween-20. Compounds were diluted in assay buffer containing 4% dimethylsulfoxide (DMSO) just prior to the assay. […] The plates were incubated at room temperature for 45 min. […] The plate was covered, incubated for 30 min at room temperature and the fluorescence polarization was read on the Analyst. […]
METRIC: inhibition at 0.1 µM (%)
# number only, unit % dropped from output

Solved entries (count: 5):
I have this compound here, CONC(=O)c1cn(C2CCCCC2)c2nc(NCCCN3CCN(C)CC3)ncc2c1=O [Cpd 45] , and I need its recorded inhibition at 0.1 µM.
43

// query: CONC(=O)c1cn(C2CCCCC2)c2nc(NCCCN3CCOCC3)ncc2c1=O [Cpd 43]
32

// query: CNC(=O)c1cn(C2CCCCC2)c2nc(NCCN3CCOCC3)ncc2c1=O [Cpd 60]
12

// query: NC(=O)c1cn(C2CCCCC2)c2nc(NCCCN3CCOCC3)ncc2c1=O [Cpd 30]
24

// query: CONC(=O)c1cn(-c2ccc3c(c2)CCC3)c2nc(NCCN3CCOCC3)ncc2c1=O [Cpd 26]
25

Turning now to a further record.
I have this compound here, NC(=O)c1cn(-c2ccc3c(c2)CCC3)c2nc(NCCCN3CCCC3=O)ncc2c1=O [Cpd 8] , and I need its recorded inhibition at 0.1 µM.
15

---

# SYSTEM: c-fms (Homo sapiens, UniProt P07333)
# ASSAY_PROCEDURE: c-fms autophosphorylation, fluorescence polarization competition immunoassay
# Assay type: biochemical
# CONDITION_SET: test concentration 0.1 μM; 10 nM c-fms, 1 mM ATP; read-out: c-fms Autophosphorylation Percent Inhibition, % @ 0.1 μM
// reported inhibition at 0.1 µM for each item listed
# number only, unit % dropped from output

I have this molecule here, NC(=O)c1cn(C2CCCCC2)c2nc(NCCN3CCOCC3)ncc2c1=O , and I need its recorded inhibition at 0.1 µM.
21

// query: CONC(=O)c1cn(C2CCCCC2)c2nc(NCc3cc(OC)cc(OC)c3)ncc2c1=O
23

***
I have this molecule here, CONC(=O)c1cn(C2CCCCC2)c2nc(NCCN3CCOCC3)ncc2c1=O , and I need its recorded inhibition at 0.1 µM.
17

---

# SYSTEM: c-fms (Homo sapiens, UniProt P07333)
# ASSAY_PROCEDURE: c-fms autophosphorylation, fluorescence polarization competition immunoassay
# Assay type: biochemical
# CONDITION_SET: test concentration 0.1 μM; 10 nM c-fms, 1 mM ATP; read-out: c-fms Autophosphorylation Percent Inhibition, % @ 0.1 μM
METRIC: inhibition at 0.1 µM (%)
# number only, unit % dropped from output

Solved entries (count: 3):
I have this compound here, CNC(=O)c1cn(C2CCCCC2)c2nc(NCc3cc(OC)cc(OC)c3)ncc2c1=O , and I need its recorded inhibition at 0.1 µM.
3

// query: COCCNc1ncc2c(=O)c(C(=O)NOC)cn(-c3ccc4c(c3)CCC4)c2n1
51

// query: CONC(=O)c1cn(-c2ccc3c(c2)CCC3)c2nc(NCCCn3ccnc3)ncc2c1=O
36

Turning now to a further record.
I have this compound here, CN1CCN(CCCNc2ncc3c(=O)c(C(N)=O)cn(C4CCCCC4)c3n2)CC1 , and I need its recorded inhibition at 0.1 µM.
31

---

# SYSTEM: c-fms (Homo sapiens)
# ASSAY_PROCEDURE: c-fms autophosphorylation, fluorescence polarization competition immunoassay
# Format: biochemical
# CONDITION_SET: test concentration 1 μM; 10 nM c-fms, 1 mM ATP; read-out: c-fms Autophosphorylation Percent Inhibition, % @ 1 μM
Given measured inhibition at 1 µM, output true (1) if it is greater than or equal to 60% and false (0) if not.

Field: example entries. Status: answers known.
Hi team, for NC(=O)c1cn(C2CCCCC2)c2nc(NCCCN3CCCC3)ncc2c1=O [Cpd 34] , is the recorded inhibition at 1 µM at or above 60%?
true (1)

// query: COCCNc1ncc2c(=O)c(C(=O)NOC)cn(C3CCCCC3)c2n1 [Cpd 47]
false (0)

// query: COc1ccc(CCNc2ncc3c(=O)c(C(N)=O)cn(C4CCCCC4)c3n2)cc1 [Cpd 37]
false (0)

Turning now to a further record.
Hi team, for CNC(=O)c1cn(-c2ccc3c(c2)CCC3)c2nc(NCCc3ccc(OC)cc3)ncc2c1=O [Cpd 17] , is the recorded inhibition at 1 µM at or above 60%?
false (0)

---

# SYSTEM: c-fms (Homo sapiens, UniProt P07333)
# ASSAY_PROCEDURE: c-fms autophosphorylation, fluorescence polarization competition immunoassay
# Assay type: biochemical
# CONDITION_SET: test concentration 1 μM; 10 nM c-fms, 1 mM ATP; read-out: c-fms Autophosphorylation Percent Inhibition, % @ 1 μM
Given measured inhibition at 1 µM, output class 1 if it is greater than or equal to 50% and class 0 if not.

Hi team, for CONC(=O)c1cn(-c2ccc3c(c2)CCC3)c2nc(NCCCN(C)C)ncc2c1=O [Cpd 20] , is the recorded inhibition at 1 µM at or above 50%?
class 1

// query: NC(=O)c1cn(-c2ccc3c(c2)CCC3)c2nc(NCCCN3CCCC3=O)ncc2c1=O [Cpd 8]
class 0

***
Hi team, for COCCCNc1ncc2c(=O)c(C(N)=O)cn(-c3ccc4c(c3)CCC4)c2n1 [Cpd 7] , is the recorded inhibition at 1 µM at or above 50%?
class 0

// query: CNC(=O)c1cn(C2CCCCC2)c2nc(NCCc3ccc(OC)cc3)ncc2c1=O [Cpd 58]
class 0

// query: CONC(=O)c1cn(-c2ccc3c(c2)CCC3)c2nc(NCCCN3CCCC3=O)ncc2c1=O [Cpd 22]
class 1

// query: CNC(=O)c1cn(C2CCCCC2)c2nc(NCCCN3CCOCC3)ncc2c1=O [Cpd 55]
class 0

// query: CN1CCN(CCCNc2ncc3c(=O)c(C(N)=O)cn(C4CCCCC4)c3n2)CC1 [Cpd 33]
class 1
